// combination Emax lookup, one value per entry
# Tested on: PEO1 (Ovarian Carcinoma)
# EXPERIMENT SUMMARY: combination Emax (second highest fraction inhibited in the dose matrix, 72 h); higher = more inhibition; extreme values may be limits of the assay
Give the figure only, with no unit attached.

>  <COMPOUND>
C=CCn1c(=O)c2cnc(Nc3ccc(N4CCN(C)CC4)cc3)nc2n1-c1cccc(C(C)(C)O)n1 [AZD1775] + CCc1c2c(nc3ccc(O)cc13)-c1cc3c(c(=O)n1C2)COC(=O)[C@]3(O)CC [SN-38] (first compound max 1 µM, partner max 0.3 µM)

>  <TARGET DESC>
PEO1 (Ovarian Carcinoma)

>  <combination Emax>
0.768

$$$$
>  <COMPOUND>
Cc1c2c(nn1C)CSCc1cc(n(C)n1)CSc1cc(c3ccccc3c1)OCCCc1c(C(=O)O)n(C)c3c-2c(Cl)ccc13 [AZD5991] + C[C@@H](Nc1cc(F)cc(F)c1)c1cc(C(=O)N(C)C)cc2c(=O)cc(N3CCOCC3)oc12 [AZD8186] (first compound max 1 µM, 7x7, partner max 3 µM)

>  <TARGET DESC>
PEO1 (Ovarian Carcinoma)

>  <combination Emax>
0.257

$$$$
>  <COMPOUND>
COc1cccc(OCCCN)c1-c1cc(Nc2cnc(C#N)cn2)n[nH]1 [Prexasertib] + CCc1c2c(nc3ccc(O)cc13)-c1cc3c(c(=O)n1C2)COC(=O)[C@]3(O)CC [SN-38] (first compound max 1 µM, 7x7, partner max 0.3 µM)

>  <TARGET DESC>
PEO1 (Ovarian Carcinoma)

>  <combination Emax>
0.71

$$$$

Inquiry: May I ask what combination Emax has been recorded for C=CCn1c(=O)c2cnc(Nc3ccc(N4CCN(C)CC4)cc3)nc2n1-c1cccc(C(C)(C)O)n1 [AZD1775] + O=C(c1cc(Cc2n[nH]c(=O)c3ccccc23)ccc1F)N1CCN(C(=O)C2CC2)CC1 [Olaparib] (first compound max 1 µM, partner max 10 µM) ?
Reply text: 0.384

Inquiry: Query: combination Emax; subject: NC1(C(=O)N[C@@H](CCO)c2ccc(Cl)cc2)CCN(c2ncnc3[nH]ccc23)CC1 [Capivasertib] + Cn1cnc2c(F)c(Nc3ccc(Br)cc3Cl)c(C(=O)NOCCO)cc21 [Selumetinib] (first compound max 10 µM, 7x7, partner max 10 µM)
Reply text: 0.56

Inquiry: Please look up its combination Emax: CS(=O)(=O)CCNCc1ccc(-c2ccc3ncnc(Nc4ccc(OCc5cccc(F)c5)c(Cl)c4)c3c2)o1 [Lapatinib] + C[C@@H](Oc1cc(-c2cnn(C3CCNCC3)c2)cnc1N)c1c(Cl)ccc(F)c1Cl [Crizotinib] (first compound max 10 µM, 7x7, partner max 10 µM)
Reply text: 0.718

Inquiry: What does the record list as combination Emax for Cc1c2c(nn1C)CSCc1cc(n(C)n1)CSc1cc(c3ccccc3c1)OCCCc1c(C(=O)O)n(C)c3c-2c(Cl)ccc13 [AZD5991] + Nc1ccn([C@@H]2O[C@H](CO)[C@@H](O)C2(F)F)c(=O)n1 [Gemcitabine] (first compound max 1 µM, 7x7, partner max 0.3 µM) ?
Reply text: 0.544

###

# Test system: HCC70 (Breast Carcinoma)
# EXPERIMENT SUMMARY: Bliss excess, mean over the matrix (fraction); higher = more synergy
MEASUREMENT NAME: Bliss excess
Just the number, please, no unit attached.

Inquiry: Consider the compound COc1nnc2ccc(N3CCC(c4ccc(OCCN5CCN(C)C(=O)[C@H]5C)cc4)CC3)nn12 [AZD5153] + C[C@@H]1COCCN1C2=NC(=NC(=C2)C3(CC3)[S@](=N)(=O)C)C4=C5C=CNC5=NC=C4 [AZD6738] (first compound max 1 µM, 7x7, partner max 10 µM) and give its measured Bliss excess.
Reply text: 0.015

###

Listing: Bliss excess of selected compounds
# System: WM1552C (Melanoma)
# EXPERIMENT SUMMARY: Bliss excess, mean over the matrix (fraction); higher = more synergy
Number, no unit, nothing else.

Worked cases, answers included:
>  <COMPOUND>
N#Cc1cnc(Nc2cc(NC[C@H]3CNCCO3)c(C(F)(F)F)cn2)cn1 [SRA737] + CCc1c2c(nc3ccc(O)cc13)-c1cc3c(c(=O)n1C2)COC(=O)[C@]3(O)CC [SN-38] (first compound max 10 µM, 7x7, partner max 0.3 µM)

>  <MEASUREMENT NAME>
Bliss excess

>  <VALUE>
-0.0777

$$$$
>  <COMPOUND>
CS(=O)(=O)CCNCc1ccc(-c2ccc3ncnc(Nc4ccc(OCc5cccc(F)c5)c(Cl)c4)c3c2)o1 [Lapatinib] + NC1(c2ccc(-c3nc4ccn5c(=O)[nH]nc5c4cc3-c3ccccc3)cc2)CCC1 [MK-2206] (first compound max 10 µM, 7x7, partner max 10 µM)

>  <MEASUREMENT NAME>
Bliss excess

>  <VALUE>
-0.0297

$$$$
>  <COMPOUND>
COc1nnc2ccc(N3CCC(c4ccc(OCCN5CCN(C)C(=O)[C@H]5C)cc4)CC3)nn12 [AZD5153] + C[C@@H]1COCCN1C2=NC(=NC(=C2)C3(CC3)[S@](=N)(=O)C)C4=C5C=CNC5=NC=C4 [AZD6738] (first compound max 1 µM, 7x7, partner max 10 µM)

>  <MEASUREMENT NAME>
Bliss excess

>  <VALUE>
-0.0783

$$$$
>  <COMPOUND>
COc1cc2ncnc(Nc3ccc(F)c(Cl)c3)c2cc1OCCCN1CCOCC1 [Gefitinib] + CC(C)n1c(=O)n(C)c2cnc3cc(F)c(-c4ccc(OCCCN5CCCCC5)nc4)cc3c21 [AZD1390] (first compound max 10 µM, 7x7, partner max 0.3 µM)

>  <MEASUREMENT NAME>
Bliss excess

>  <VALUE>
-0.0589

$$$$
>  <COMPOUND>
O=C(c1cc(Cc2n[nH]c(=O)c3ccccc23)ccc1F)N1CCN(C(=O)C2CC2)CC1 [Olaparib] + COc1nnc2ccc(N3CCC(c4ccc(OCCN5CCN(C)C(=O)[C@H]5C)cc4)CC3)nn12 [AZD5153] (first compound max 10 µM, 7x7, partner max 1 µM)

>  <MEASUREMENT NAME>
Bliss excess

>  <VALUE>
-0.0553

$$$$
>  <COMPOUND>
Cc1cc2ncnn2cc1Nc1ncc2c(n1)n(C1CCOCC1)c(=O)n2C [AZD7648] + CN(C)CCCOc1ccc(-c2ccc3ncc4c(c3c2)n(C2CCOCC2)c(=O)n4C)cn1 [AZD0156] (first compound max 10 µM, 7x7, partner max 1 µM)

>  <MEASUREMENT NAME>
Bliss excess

>  <VALUE>
0.0249

$$$$

Inquiry: # query: Bliss excess of entry Cc1c2c(nn1C)CSCc1cc(n(C)n1)CSc1cc(c3ccccc3c1)OCCCc1c(C(=O)O)n(C)c3c-2c(Cl)ccc13 [AZD5991] + CCN(CCO)CCCOc1ccc2c(Nc3cc(CC(=O)Nc4cccc(F)c4)[nH]n3)ncnc2c1 [AZD2811] (first compound max 1 µM, 7x7, partner max 1 µM)
Reply text: -0.0095

Inquiry: Endpoint output: Bliss excess of C[C@@H]1COCCN1c1cc(C2([S@](C)(=N)=O)CC2)nc(-c2ccnc3[nH]ccc23)n1 [AZD6738] + O=C(c1cc(Cc2n[nH]c(=O)c3ccccc23)ccc1F)N1CCN(C(=O)C2CC2)CC1 [Olaparib] (first compound max 10 µM, 7x7, partner max 10 µM) . Value?
Reply text: 0.0105

Inquiry: Return reported Bliss excess; argument: Cc1c2c(nn1C)CSCc1cc(n(C)n1)CSc1cc(c3ccccc3c1)OCCCc1c(C(=O)O)n(C)c3c-2c(Cl)ccc13 [AZD5991] + Cn1cnc2c(F)c(Nc3ccc(Br)cc3Cl)c(C(=O)NOCCO)cc21 [Selumetinib] (first compound max 1 µM, 7x7, partner max 3 µM)
Reply text: -0.089

Inquiry: Consider the compound Cc1c2c(nn1C)CSCc1cc(n(C)n1)CSc1cc(c3ccccc3c1)OCCCc1c(C(=O)O)n(C)c3c-2c(Cl)ccc13 [AZD5991] + Cc1cc2ncnn2cc1Nc1ncc2c(n1)n(C1CCOCC1)c(=O)n2C [AZD7648] (first compound max 1 µM, 7x7, partner max 10 µM) and give its measured Bliss excess.
Reply text: -0.0762

###

# Test system: SW620 (Colorectal Carcinoma)
# EXPERIMENT SUMMARY: Bliss excess, mean over the matrix (fraction); higher = more synergy
Here, each record is paired with measured Bliss excess data.
The response must contain the number and no unit.

Sample answers from the record:
>  <COMPOUND>
Cc1nc(Nc2ncc(C(=O)Nc3c(C)cccc3Cl)s2)cc(N2CCN(CCO)CC2)n1 [Dasatinib] + CC(=O)Nc1cccc(-n2c(=O)n(C3CC3)c(=O)c3c(Nc4ccc(I)cc4F)n(C)c(=O)c(C)c32)c1 [Trametinib] (first compound max 2 µM, 7x7, partner max 1 µM)

>  <Bliss excess>
-0.0107

$$$$
>  <COMPOUND>
C=CCn1c(=O)c2cnc(Nc3ccc(N4CCN(C)CC4)cc3)nc2n1-c1cccc(C(C)(C)O)n1 [AZD1775] + Nc1ccn([C@@H]2O[C@H](CO)[C@@H](O)C2(F)F)c(=O)n1 [Gemcitabine] (first compound max 1 µM, partner max 0.3 µM)

>  <Bliss excess>
0.0165

$$$$

Inquiry: // returns reported Bliss excess for input Cc1nc(-c2cn3c(n2)-c2ccc(-c4cnn(C(C)(C)C(N)=O)c4)cc2OCC3)n(C(C)C)n1 [Taselisib] + O=C(Nc1ccc2[nH]nc(-c3ccncc3)c2c1)[C@@H]1CCN(CC(=O)N2CCN(c3ccc(-c4ncccn4)cc3)CC2)C1 [SCH772984] (first compound max 10 µM, 7x7, partner max 5 µM)
Reply text: 0.0518
